METHOD_NOTES: Cytotoxicity against human HepG2 cells assessed as inhibition of cell growth at 80 uM incubated for 48 hrs by PI staining based flow cytometric analysis relative to control
Assay type: toxicity
RECORDED_ENDPOINT: inhibition at 48 h, 80 µM (%)
Numbers only, in %.

Req: Record request: inhibition at 48 h, 80 µM value, item `COc1cc2c(N3CCCCC3)nc(NC(=O)c3ccc(F)cc3)nc2cc1OC1CCCC1`
Resp: 10.8

----------
METHOD_NOTES: Metabolic stability in human liver microsomes assessed as hepatic blood flow preincubated for 10 mins and measured after 60 mins by LC-MS/MS analysis
Assay type: ADME, Microsome
COND: read-out: QH
Provide the recorded hepatic extraction ratio at 1 h for the entries that follow.
Answers are plain numbers.

[
  {
    "CHEMICAL_STRING": "COc1cc2c(N3CCCCC3)nc(NCc3ccc(F)cc3)nc2cc1OC1CCCC1",
    "QUANTITATIVE_READOUT": 0.722
  },
  {
    "CHEMICAL_STRING": "COc1cc2c(N3CCCCC3)nc(NCC3CCCCC3)nc2cc1OC1CCCC1",
    "QUANTITATIVE_READOUT": 0.747
  },
  {
    "CHEMICAL_STRING": "COc1cc2c(N3CCOCC3)nc(NCc3ccc(F)cc3)nc2cc1OC1CCCC1",
    "QUANTITATIVE_READOUT": 0.843
  }
]

Working through the 2 compounds below one at a time, give hepatic extraction ratio at 1 h for each.
1. COc1ccc(CNc2nc(N3CCCCC3)c3cc(OC)c(OCc4ccccc4)cc3n2)cc1
2. COc1cc2c(N3CCCCC3)nc(NCc3ccc(C(F)(F)F)cc3)nc2cc1OC1CCCC1

Resp:
1. 0.499
2. 0.455
